System: MDA-MB-435
Outcome codes: TRUE = active, FALSE = inactive

O=C(c1cccc(O)c1O)c1cn(Cc2ccc(F)cc2)c2cccc(O)c12 ... FALSE
COc1ccc2c(c1)C(=O)c1c-2n(CCCn2ccnc2)c(=O)c2ccccc12 ... FALSE
NC(=S)N/N=C/c1ccc(OC(=O)COc2ccc(Cl)cc2)cn1 ... FALSE
CC1CN1CC(O)C(O)CN1CC1C (stereo not given) ... FALSE
COc1ccc(OC)c(/C=C/C(=O)N/N=C/c2ccc(Cl)cc2)c1 ... TRUE
CCN1C(=O)CNc2ncc(-c3ccc(-c4ncn[nH]4)nc3C)nc21 ... TRUE
Cc1cc(C)c(C(=O)CC(=O)c2cccnc2)c(C)c1 ... FALSE
CCN(CC)c1sc(N(CC)CC)c2c1SSSSS2 ... FALSE
CCOC(=O)c1cc(/C(=N\O)c2cc(OC)c(OC)c(OC)c2)n2cc(C)cc(C)c12 ... FALSE
COc1ccc(C(=O)COc2cccc(/C=C3\COc4ccc5ccccc5c4C3=O)c2)cc1 ... FALSE

====

Test system: MDA-MB-435
TEST NAME: NCI tumour cell line growth inhibition, 48 h
READOUT KIND: TGI

CC(=O)OC1=NN=C2COC(c3ccccc3OC(C)=O)=NN2C1 ... > 50 µM
Cc1ccc(S(=O)(=O)NC(=O)NCc2ccc(S(N)(=O)=O)cc2)cc1 ... > 100 µM
O=C1NC(=O)c2ccc([N+](=O)[O-])c3cccc1c23 ... 29.9 µM
O=C(CP(=O)(c1ccccc1)c1ccccc1)c1cccc(C(=O)CP(=O)(c2ccccc2)c2ccccc2)c1 ... > 100 µM
O=C(Nc1ccc(Cl)cc1)c1cc(S(=O)(=O)Nc2n[nH]c(Nc3ccc4ccccc4c3)n2)c(SSc2cc(Cl)c(C(=O)Nc3ccc(Cl)cc3)cc2S(=O)(=O)Nc2n[nH]c(Nc3ccc4ccccc4c3)n2)cc1Cl ... > 80.3 µM
C[N+]12CCCCC1C(COc1cccc3cccnc13)CCC2 (centres undefined) ... > 100 µM
CC12CCCC(C(=O)O)(C1)[C@H](C(C)(C)C(=O)O)CC2 (some centres undefined) ... > 100 µM
CC12CCCC(O)C1CCC1=CC3(CCC12)SCCS3 (centres undefined) ... > 10 µM
COc1ccc(C(=O)COc2cccc(/C=C3\COc4ccc5ccccc5c4C3=O)c2)cc1 ... 41.3 µM

====

Recorded GI50 values for a group of compounds are listed next.
Test system: CCRF-CEM leukemia
TEST NAME: NCI tumour cell line growth inhibition, 48 h
READOUT KIND: GI50

COc1cc(OC)c(/C=C/C(=O)c2c(OC)cccc2OC)c(OC)c1 ... 1.23 µM
CCN(CC)c1sc(N(CC)CC)c2c1SSSSS2 ... 0.359 µM
CCN(CC)CCN1CC(O)=C(c2nc(-c3ccc(Cl)cc3)cs2)C1=N ... 2 µM
Cc1cc(C)c(C(=O)CC(=O)c2cccnc2)c(C)c1 ... 4.1 µM
COc1ccc2c(c1)C(=O)c1c-2n(CCCn2ccnc2)c(=O)c2ccccc12 ... 0.213 µM

====

System: HOP-62 NSCLC
TEST NAME: NCI tumour cell line growth inhibition, 48 h
Recorded TGI values for a group of compounds are listed next.
READOUT KIND: TGI

COC(=O)c1cc(Br)c(Br)n1C ... > 100 µM
COC(=O)C1C2OC(C)(C)OC2CN1S(=O)(=O)c1ccc(C)cc1 (stereo not drawn) ... > 100 µM
Cn1c(-c2cccs2)cc(-c2cccs2)c1-c1cccs1 ... > 100 µM
